Purity by entry:
assay: Storage stability of crystalline forms at 40° C. for 20 days, purity and content by HPLC; type: physicochemical; conditions: After storage in thermostatically controlled containers at 40° C. for 20 days, internal standard method
The answer is to be given in %; state only the numeric part.

Previously resolved entries follow.
>>> experimental_result("COc1ccc2cccc(CCNC(C)=O)c2c1 [Crystalline form III]")
99.3
>>> experimental_result("COc1ccc2cccc(CCNC(C)=O)c2c1 [Crystalline form VII]")
99.7
>>> experimental_result("COc1ccc2cccc(CCNC(C)=O)c2c1 [Crystalline form VI]")
99.6

Next up:
# compound COc1ccc2cccc(CCNC(C)=O)c2c1 [Crystalline form II] ; its Purity = 99.3
